Assay: Intravenous pharmacokinetics
Type: in vivo, BALB/c mice
Settings: BALB/c, mouse, in vivo; mice, single IV dose 2 mg/kg
Each entry below carries its recorded AUC(0-inf).
API: value field is a number in ng·h/mL; no unit string.

>>> meas_value("O=C(Nc1nc(-c2ccc(F)cc2F)cs1)c1ccc([N+](=O)[O-])s1")
570

// below: AUC(0-inf) requested for another molecule
### Prompt Tell me AUC(0-inf) reported for "O=C(Nc1nc(-c2ccc(F)cc2)cs1)c1ccc([N+](=O)[O-])s1"
### Response 911

###

Assay: Oral pharmacokinetics
Format: in vivo, BALB/c mice
Details: BALB/c, mouse, plasma; mice, single oral dose 10 mg/kg
MEASURED ENDPOINT: AUC(0-t) (ng·h/mL)
API: value field is a number in ng·h/mL; no unit string.

>>> meas_value("O=C(Nc1nc(-c2ccc(F)cc2)cs1)c1ccc([N+](=O)[O-])s1")
750

// below: AUC(0-t) requested for another compound
### Prompt Tell me AUC(0-t) reported for "O=C(Nc1nc(-c2ccc(F)cc2F)cs1)c1ccc([N+](=O)[O-])s1"
### Response 750

Reference source: paper PMC5940854
